Experiment: Fluorescence titration of VEPEP-4 binding to small molecule cargo
Conditions: cargo Doxorubicin
*1 amine or outer side, *2 acyl side, *3 side chain or, on linkers, in order; H or OH if unused. Where a SMILES comes first, the peptide text is derived from it. [ ]: non-standard residue; d: D form. Cysteamide = C(CS[*:3])N[*:1]; βAla = NCCC(=O)O
Reported property: Binding

Compound	Result
CC(=O)NCCC(=O)N[C@@H](Cc1c[nH]c2ccccc12)C(=O)N[C@@H](Cc1ccccc1)C(=O)N[C@@H](CCCNC(=N)N)C(=O)N[C@@H](CC(C)C)C(=O)N[C@@H](CO)C(=O)N[C@@H](CC(C)C)C(=O)N[C@@H](CCCNC(=N)N)C(=O)N[C@@H](Cc1ccccc1)C(=O)N[C@@H](Cc1c[nH]c2ccccc12)C(=O)NCCS [Short 4, X1WFRLSLRFW] (Ac-[βAla]WFRLSLRFW-Cysteamide)	yes
CC(=O)NCCC(=O)N[C@@H](Cc1c[nH]c2ccccc12)C(=O)N[C@@H](Cc1ccccc1)C(=O)N[C@@H](CCCNC(=N)N)C(=O)N[C@@H](CC(C)C)C(=O)N[C@@H](CO)C(=O)N[C@@H](CC(C)C)C(=O)N[C@@H](CCCNC(=N)N)C(=O)N[C@@H](Cc1ccccc1)C(=O)N[C@@H](Cc1c[nH]c2ccccc12)C(=O)N[C@@H](CCCNC(=N)N)C(=O)NCCS [VEPEP-3j, X1WFRLSLRFWR] (Ac-[βAla]WFRLSLRFWR-Cysteamide)	yes
CC(=O)NCCC(=O)N[C@@H](Cc1c[nH]c2ccccc12)C(=O)N[C@@H](Cc1c[nH]c2ccccc12)C(=O)N[C@@H](CCCNC(=N)N)C(=O)N[C@@H](CC(C)C)C(=O)N[C@@H](CO)C(=O)N[C@@H](CC(C)C)C(=O)N[C@@H](CCCNC(=N)N)C(=O)N[C@@H](Cc1c[nH]c2ccccc12)C(=O)N[C@@H](Cc1c[nH]c2ccccc12)C(=O)NCCS [VEPEP-3i, X1WWRLSLRWW] (Ac-[βAla]WWRLSLRWW-Cysteamide)	yes
